Target: UniProt:A0ABK0LTS6
Experiment: Rat enteropeptidase enzyme assay
Type: biochemical
measured-quantity: IC50 (nM)
Answer with a number only, understood to be in nM.

Query string: # return recorded IC50 for entry N=C(N)Nc1ccc(C(=O)Oc2ccc3c(c2)OC[C@H]3CC(=O)N[C@@H](CC(=O)O)C(=O)O)cc1.O [(S)-5b]
Result string: 4.6

---

Biological target: human enteropeptidase (Homo sapiens, UniProt P98073)
Construct: purchased ITSI-Biosciences, LLC #REN-260
Sequence (P98073 whole entry): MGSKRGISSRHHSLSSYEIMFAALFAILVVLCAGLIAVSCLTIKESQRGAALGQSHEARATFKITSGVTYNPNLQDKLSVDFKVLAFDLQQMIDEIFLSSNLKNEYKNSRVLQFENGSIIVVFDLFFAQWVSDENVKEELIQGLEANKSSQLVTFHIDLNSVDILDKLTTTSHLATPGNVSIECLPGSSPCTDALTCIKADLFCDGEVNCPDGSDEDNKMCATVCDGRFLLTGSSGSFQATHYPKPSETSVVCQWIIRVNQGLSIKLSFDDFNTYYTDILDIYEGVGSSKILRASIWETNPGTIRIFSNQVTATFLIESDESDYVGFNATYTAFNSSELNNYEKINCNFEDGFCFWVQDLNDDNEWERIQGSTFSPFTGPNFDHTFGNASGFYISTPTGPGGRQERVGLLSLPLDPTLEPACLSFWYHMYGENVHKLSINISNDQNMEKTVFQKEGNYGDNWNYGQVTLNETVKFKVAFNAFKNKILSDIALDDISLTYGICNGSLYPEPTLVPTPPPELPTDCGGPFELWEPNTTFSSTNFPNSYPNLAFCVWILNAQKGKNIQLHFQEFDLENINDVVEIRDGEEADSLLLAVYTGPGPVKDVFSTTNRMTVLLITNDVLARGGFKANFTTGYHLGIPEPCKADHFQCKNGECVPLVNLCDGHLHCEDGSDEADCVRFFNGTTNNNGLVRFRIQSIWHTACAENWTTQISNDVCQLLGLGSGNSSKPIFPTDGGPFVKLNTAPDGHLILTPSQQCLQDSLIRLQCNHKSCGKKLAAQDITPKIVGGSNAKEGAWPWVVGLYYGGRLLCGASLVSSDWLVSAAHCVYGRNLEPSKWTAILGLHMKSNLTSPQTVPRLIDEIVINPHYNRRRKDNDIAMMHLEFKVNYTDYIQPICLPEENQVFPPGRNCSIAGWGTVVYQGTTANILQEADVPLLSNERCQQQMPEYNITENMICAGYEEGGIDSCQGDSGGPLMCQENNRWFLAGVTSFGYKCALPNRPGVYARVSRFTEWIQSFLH
Assay: Dissociation assay (recovery of active enzyme after rapid dilution)
Format: biochemical
Details: rapid dilution after 2 h preincubation of compound and enzyme
Readings of T1/2, half-time of dissociation from human enteropeptidase for the listed compounds
Report only the number, with the unit h understood.

smiles_code=N=C(N)Nc1ccc(C(=O)Oc2ccc(CC(=O)N[C@@H](CC(=O)O)C(=O)O)cc2)c(Cl)c1 units_text=h meas_value=0.233

We now examine a further compound.
Query string: Provide one value: measured T1/2, half-time of dissociation from human enteropeptidase of N=C(N)Nc1ccc(C(=O)Oc2ccc(CC(=O)N[C@@H](CC(=O)O)C(=O)O)cc2)c(F)c1
Result string: 0.102

---

Reported solubility kinetic is given for each of the following compounds.
Experiment: Kinetic aqueous solubility at pH 1.2/6.8
Assay type: physicochemical
Settings: aqueous medium, pH 6.8, aqueous buffer, kinetic from dmso stock; read-out: Kinetic aqueous solubility at pH 6.8

compound="Cl.N=C(N)Nc1ccc(C(=O)Oc2ccc(CC(=O)N[C@@H](CC(=O)O)C(=O)O)cc2)cc1 [2a]" meas_value="> 97 µg/mL"
compound="N=C(N)Nc1ccc(C(=O)Oc2ccc(C(=O)N[C@@H](CC(=O)O)C(=O)O)cc2)cc1.O=C(O)C(F)(F)F [4c]" meas_value="> 88 µg/mL"
compound="N=C(N)Nc1ccc(C(=O)Oc2cccc(CC(=O)N[C@@H](CC(=O)O)C(=O)O)c2)cc1.O=C(O)C(F)(F)F [4a]" meas_value="> 92 µg/mL"

Okay, now this compound:
Query string: For N=C(N)Nc1ccc(C(=O)Oc2cccc(C(=O)N[C@@H](CC(=O)O)C(=O)O)c2)cc1.O=C(O)C(F)(F)F [4b] , write its solubility kinetic.
Result string: > 89 µg/mL

---

Experiment: Kinetic aqueous solubility at pH 1.2/6.8
Assay type: physicochemical
Details: aqueous medium, pH 1.2, simulated gastric fluid, kinetic from dmso stock; read-out: Kinetic aqueous solubility at pH 1.2
Listing of recorded solubility kinetic by entry.
Report the value in µg/mL with no unit label.

Query string: Find the measured solubility kinetic of Cl.N=C(N)Nc1ccc(C(=O)Oc2ccc(CC(=O)N[C@@H](CC(=O)O)C(=O)O)cc2)cc1 and report it.
Result string: 76

Query string: Recall and state the measured solubility kinetic for N=C(N)Nc1ccc(C(=O)Oc2ccc(C(=O)N[C@@H](CC(=O)O)C(=O)O)cc2)cc1.O=C(O)C(F)(F)F .
Result string: 69

---

Target: rat enteropeptidase (Rattus norvegicus)
Sequence (A0ABK0LTS6 829-1068): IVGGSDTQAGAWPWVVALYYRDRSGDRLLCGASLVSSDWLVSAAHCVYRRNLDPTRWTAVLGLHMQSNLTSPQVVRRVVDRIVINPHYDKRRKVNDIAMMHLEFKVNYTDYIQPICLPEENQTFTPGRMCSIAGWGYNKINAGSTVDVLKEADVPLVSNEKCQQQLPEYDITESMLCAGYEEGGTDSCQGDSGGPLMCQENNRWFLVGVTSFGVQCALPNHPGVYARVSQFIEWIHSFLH
Assay: Rat enteropeptidase enzyme assay
Assay type: biochemical
Conditions: 120 min; supplement csv, unit inferred; read-out: rat enteropeptidase IC50 (120 min)
measured-quantity: IC50 (nM)
Output spec: scalar in nM, unitless text.

Query string: Provide IC50, tested on rat enteropeptidase (Rattus norvegicus), for N=C(N)Nc1ccc(C(=O)Oc2cccc(C3=NO[C@](CC(=O)O)(C(=O)O)C3)c2)cc1 .
Result string: 1.5

Reference source: paper PMC9234964
